# credit: the METLIN SMRT retention time set (Domingo-Almenara et al. 2019)

Test: gradient 5% acetonitrile 3 min, to 50% in 2 min, to 85% in 15 min, held 3 min, 100 µL/min
Details: column: Zorbax Extend-C18 2.1 x 50 mm; eluents: water / acetonitrile, 0.1% formic acid
Can you tell me RP-LC retention time for the items I'm about to list?
Numbers only, in s.

Use these answered entries as a reference point.
MOLECULE	RP-LC retention time / s
CC(=O)Nc1ccc2c(c1)N(C(=O)c1cccs1)CCC2	695
Cc1noc(C2CN(C(=O)NC3CCCC3)CC23CCOCC3)n1 (stereo not drawn)	633

Field: next molecule
Query: Entry CCOC(=O)CC(=O)Nc1nc(C2COc3ccccc3O2)cs1 (stereo not drawn) : reported RP-LC retention time = ?
Result: 921

###

Experiment: gradient 5% acetonitrile 3 min, to 50% in 2 min, to 85% in 15 min, held 3 min, 100 µL/min
Settings: column: Zorbax Extend-C18 2.1 x 50 mm; eluents: water / acetonitrile, 0.1% formic acid
Criterion: RP-LC retention time meeting or surpassing 800 s. Met: 1 (yes). Not met: 0 (no).

A selection of reference data follows.
MOLECULE	ASSIGNED LABEL
O=C(NCc1cccs1)c1nc(-c2ccc(N3CCCC3)cc2)no1	1 (yes)
CCOC(=O)c1csc(NC(=O)c2ccc3ncsc3c2)n1	0 (no)

Query: Kindly determine if RP-LC retention time recorded for `Cc1ccc(-n2nc(N3CCN(C(=O)c4ccc(Br)o4)CC3)ccc2=O)cc1C` is above or exactly 800 s.
Result: 1 (yes)

Query: Check if RP-LC retention time >= 800 s (inclusive). Item: COc1ccc(CNC(=O)CSc2ccc(N3CCCC(C(=O)NC4CC4)C3)nn2)cc1 (centres undefined)
Result: 0 (no)

###

Can you tell me RP-LC retention time for the items I'm about to list?
Experiment: gradient 5% acetonitrile 3 min, to 50% in 2 min, to 85% in 15 min, held 3 min, 100 µL/min
Conditions: column: Zorbax Extend-C18 2.1 x 50 mm; eluents: water / acetonitrile, 0.1% formic acid
Give bare numbers, in s.

Answer for every listed entry: what is its RP-LC retention time? The entries follow.
1. Cc1cccc(N2CCN(C(=O)c3sc4ncccc4c3-n3cccc3)CC2)c1
2. CC(C)(NC(=O)c1cccs1)C(=O)N1CCN(c2ccccc2)CC1
3. CCCn1nc(CNC(=O)c2ccc(C#N)cc2)c2ccccc21
4. CN1c2cc(C(=O)N3CCN(c4ccccc4)CC3)ccc2C(=O)N2CCCCC21 (stereo unspecified)
5. CC(C)c1noc(-c2ccc(-n3cnc(C(=O)Nc4ccc(F)cc4)c3)nc2)n1
6. CCCc1nc2cccnc2n1C1CCN(C(=O)COc2ccccc2)C1 (stereo unspecified)
7. Cn1c(=O)c(N2CCN(S(=O)(=O)c3ccc(Cl)cc3)CC2)nc2ccncc21
8. Cc1ccc(CNC(=O)CCc2nc(N3CCCCC3)c3c(-c4ccc(F)cc4)noc3n2)o1

Result:
[1060, 687, 844, 823, 1020, 630, 674, 1030]

###

Assay: gradient 5% acetonitrile 3 min, to 50% in 2 min, to 85% in 15 min, held 3 min, 100 µL/min
Details: column: Zorbax Extend-C18 2.1 x 50 mm; eluents: water / acetonitrile, 0.1% formic acid
MEASURE: RP-LC retention time (s)
Numbers only, in s.

MOLECULE	UNITS LABEL	RP-LC retention time
CCOc1ccc(NC(=O)N(C)CCc2noc(C3CCCCC3)n2)cc1	s	942
Clc1ccc(-c2ccc(CNCc3ccccn3)o2)c(Cl)c1	s	734
Nc1cc(-c2cccc(F)c2)[nH]n1	s	608
CCN1CCN(CCCNC(=O)C(C)n2c(=O)c(C(F)(F)F)nc3cc(C)c(C)cc32)CC1 (stereo not given)	s	649

Report RP-LC retention time for each item below.
1. CN1CCC(c2c[nH]c3ccccc23)C1 (stereo not given)
2. Cn1c(CCC(=O)NCc2ccc(C(F)(F)F)cc2)nc2ccccc2c1=O
3. Cc1c(C(=O)NCC2CC2)cnn1-c1cc(-c2nc(C(C)C)no2)ccn1
4. CCn1c(=O)c2c(nc3n2CC(C)CN3c2ccc(Br)cc2)n(C)c1=O (stereo not given)
5. CCSc1nnc(NC(=O)Cc2csc(NC(=O)c3cnccn3)n2)s1

Result:
1. 648
2. 825
3. 1020
4. 954
5. 678

###

Task for the reader: assign each of the following compounds its reported RP-LC retention time.
Assay: gradient 5% acetonitrile 3 min, to 50% in 2 min, to 85% in 15 min, held 3 min, 100 µL/min
Details: column: Zorbax Extend-C18 2.1 x 50 mm; eluents: water / acetonitrile, 0.1% formic acid
Answers are plain numbers, in s.

COMPOUND	UNITS LABEL	RP-LC retention time
O=C(Cn1nc2n(c1=O)CCCC2)NCc1ccc(F)cc1	s	642
CCn1nccc1C(=O)NCc1cccnc1OC	s	662
CCn1cc(CCNC(=O)c2ccccc2OC)c2cccnc21	s	716
OC(CNCc1ccc(-c2ccc(F)cc2)o1)c1ccccc1 (stereo unspecified)	s	687
Cc1nn(CCC(=O)NC2CCCCCC2)c(=O)c2nn(-c3ccccc3)c(C)c12	s	830
COc1ccc(-c2c(C)nn3c(N4CCN(c5ccccn5)CC4)cc(C)nc23)cc1OC	s	600
CCCN1C(=O)C(C)(C(=O)NCc2ccc(C)cc2)Oc2cccnc21 (stereo unspecified)	s	616
COCCNC(=O)C1CCN(C(=O)c2cc3ccsc3n2Cc2ccc(Cl)cc2)CC1	s	843

Give RP-LC retention time for each of the items listed below.
1. CCCS(=O)(=O)N1CC(=O)N(c2cccc(Cl)c2C)C(C)(C(=O)NC2CCCC2)C1 (stereo unspecified)
2. O=C(COc1ccc(F)cc1)NC1(c2nc(-c3ccncc3)no2)CCCCC1
3. O=C(Cc1csc(SCc2ccc(Br)cc2)n1)NCc1cccs1

Result:
1: 946; 2: 934; 3: 978

###

Please provide measured RP-LC retention time for the entries that follow.
Test: gradient 5% acetonitrile 3 min, to 50% in 2 min, to 85% in 15 min, held 3 min, 100 µL/min
Settings: column: Zorbax Extend-C18 2.1 x 50 mm; eluents: water / acetonitrile, 0.1% formic acid
Give bare numbers, in s.

Check out these entries, answers already filled in.
MOLECULE	MEASURE	UNITS LABEL	VALUE REPORTED
CCOc1ccc(NC(=O)Cn2c(=O)n(-c3ccccc3)c(=O)c3sc(SCC)nc32)cc1	RP-LC retention time	s	981
CN1CCN(C(=O)c2ccc(S(=O)(=O)c3ccccc3)s2)CC1	RP-LC retention time	s	605

List the reported RP-LC retention time of each molecule below.
1. Cc1c(C(=O)N2CCOCC2)cnn1-c1ccc(-c2nc(C3CC3)no2)cn1
2. COc1ccccc1NC(=O)C1CCN(C(=O)C2Sc3ccccc3NC2=O)CC1 (stereo not drawn)
3. Cn1ccc(C(=O)N2CCNC(=O)C2(C)C)n1
4. COc1ccc(Cl)cc1C(=O)NCC(c1ccsc1)N1CCCC1 (stereo not drawn)

Result:
1: 778; 2: 753; 3: 527; 4: 582

###

Test: gradient 5% acetonitrile 3 min, to 50% in 2 min, to 85% in 15 min, held 3 min, 100 µL/min
Conditions: column: Zorbax Extend-C18 2.1 x 50 mm; eluents: water / acetonitrile, 0.1% formic acid
Classification field: enter Satisfied for RP-LC retention time values not below 700 s, Not satisfied for values below it.

Before answering, review these 2 worked examples.
COMPOUND	ASSIGNED LABEL
Cc1ccc(C(=O)NCc2nc(-c3ccc4c(c3)nnn4C)no2)cc1	Satisfied
Cc1cc(N2CCN(C)CC2)nc2ccc(NC(=S)NCc3ccc4c(c3)OCO4)cc12	Not satisfied

Kindly review the next compound as well.
Query: Form field: RP-LC retention time at least 700 s? Entry: Cc1ccc(CNC(=O)Cn2cnc3nc(N4CCCC(C(=O)NC5CC5)C4)sc3c2=O)cc1 (configuration not stated)
Result: Satisfied

###

Assay: gradient 5% acetonitrile 3 min, to 50% in 2 min, to 85% in 15 min, held 3 min, 100 µL/min
Conditions: column: Zorbax Extend-C18 2.1 x 50 mm; eluents: water / acetonitrile, 0.1% formic acid
Please provide measured RP-LC retention time for the entries that follow.
Value and unit, in that order.

Give me RP-LC retention time for each of these molecules, listed below.
1. COc1ccc(OC)c(C(O)Cn2ccn3nc(-c4ccc(C(C)C)cc4)cc3c2=O)c1 (stereo not drawn)
2. Cc1nc2ccc(C(=O)N3CCCCCC3)cc2nc1C
3. CC(C)NC(=O)CCCN1C(=O)c2ccccc2Sc2ncccc21
4. COCCN1C(=O)c2ccccc2C(C(=O)NCc2ccccc2OC)C12CCCC2 (stereo not drawn)
5. O=C(Nc1ccccc1)N1CC(Oc2cccc(-c3nc(-c4ccccc4)no3)c2)C1
6. COCc1c(C(=O)O)nnn1-c1ccc(F)c(F)c1
7. Cc1cc(C)cc(NS(=O)(=O)c2cc3c4c(c2)CCC(=O)N4CCC3)c1
8. Cc1cc2nc(C(F)(F)F)c(=O)n(C(C)C(=O)NCCCN3CCCC3)c2cc1C (stereo not drawn)

Result:
1090 s
605 s
674 s
855 s
1160 s
723 s
874 s
714 s
